tested on: SW480; assay: cell viability (CellTiter-Glo) relative to plate median (fraction of plate median); higher = more viable cells; conditions: 5 µM; treatment time 24 h; reporter: 7TFP
Field: cell viability. Provide a value for each of the molecules that follow.
Simply state the number, no unit and no words.

Give its cell viability value. Item: `CCN(CC)C(=O)N1CCN(C)CC1`
1.03

Give its cell viability value. Item: `O=C(O)CN1C(=O)c2cccc3cccc(c23)C1=O`
1

Give its cell viability value. Item: `COc1cc(O)c(C(=O)c2ccccc2)cc1O`
1.07

Give its cell viability value. Item: CC(C)C[C@H]1C(=O)N2CCC[C@H]2C(=O)N1O [Cyclo(hydroxyleucylprolyl)]
0.988

Give its cell viability value. Item: `CC(C)c1nc(N(C)S(C)(=O)=O)nc(-c2ccc(F)cc2)c1/C=C/[C@@H](O)C[C@@H](O)CC(=O)O`
1.02

Give its cell viability value. Item: CN1CCN2c3ccccc3Cc3ccccc3C2C1 (stereo not drawn)
1.07

Give its cell viability value. Item: CN[C@@H]1[C@@H](O[C@H]2O[C@H](CO)[C@@H](N)[C@H](O)[C@H]2O)OC2C[C@@H](N)[C@@H](O[C@H]3[C@H](O)[C@@H](O)[C@H](N)C[C@@H]3N)OC2[C@@H]1O (stereo partly drawn)
0.965

Give its cell viability value. Item: `Nc1ccc(S(=O)(=O)Nc2ccnn2-c2ccccc2)cc1`
0.939

Give its cell viability value. Item: `COC(=O)[C@H]1[C@H]2C[C@H]3c4[nH]c5ccccc5c4CCN3C[C@@H]2CC[C@@H]1O`
1.06

Give its cell viability value. Item: CC(=O)OCC(=O)[C@@]1(O)CC[C@H]2[C@@H]3C[C@H](C)C4=CC(=O)C=C[C@]4(C)[C@H]3[C@@H](O)C[C@@]21C [6alpha-METHYLPREDNISOLONE ACETATE]
0.994

Give its cell viability value. Item: CN(C)CCC(c1ccccc1)c1ccccn1 (stereo not drawn)
0.963

Give its cell viability value. Item: `CN(C)CCc1c[nH]c2ccc(C[C@H]3COC(=O)N3)cc12`
1.04

Give its cell viability value. Item: `COc1cc(OC)c(C(C)=O)c(O)c1C`
1.04

Give its cell viability value. Item: CC(N/C(=N\C#N)Nc1ccncc1)C(C)(C)C (stereo not drawn)
0.989

Give its cell viability value. Item: `CC1(C)[C@@H](O)CC[C@]2(C)[C@H]3C(=O)C=C4[C@@H]5C[C@@](C)(C(=O)O)CC[C@]5(C)CC[C@@]4(C)[C@]3(C)CC[C@@H]12`
1.05

Give its cell viability value. Item: `CC(C)=CCc1c(O)cc2oc(C)cc(=O)c2c1O`
1

Give its cell viability value. Item: `CNS(=O)(=O)c1ccc(NC(=O)c2ccccc2C(=O)O)cc1`
1.04

Give its cell viability value. Item: `CCCCC1=NC2(CCCC2)C(=O)N1Cc1ccc(-c2ccccc2-c2nnn[nH]2)cc1`
1
